For each record, write down the corresponding IC50.
- MEASUREMENT TARGET: KRAS G12C (GMPPNP-loaded) and cRAF (Ras-binding domain) interaction (Homo sapiens (Human), UniProt P01116, C118S/C51S/C80L/G12C)
- Sequence (P01116 other isoform, or with tags, fused parts or gaps G12C/C51S/C80L/C118S): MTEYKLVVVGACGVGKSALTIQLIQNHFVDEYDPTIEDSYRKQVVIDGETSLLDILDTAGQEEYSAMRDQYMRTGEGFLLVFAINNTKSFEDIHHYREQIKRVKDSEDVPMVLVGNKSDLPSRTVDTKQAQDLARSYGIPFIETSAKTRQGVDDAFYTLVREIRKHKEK
- PROTOCOL TEXT: Inhibition of KRAS G12C and cRAF binding (AlphaScreen)
- CONDITION DESCRIPTION: KRAS G12C loaded with GMPPNP, cRaf RBD, 2 hours preincubation; read-out: Raf-1 RBD K-Ras IC50

As a guide, the following entries are already answered.
Please fill in: IC50 reported for CN1CCN(C/C=C/C(=O)N2CCN(c3nc(OC[C@@]45CCCN4C[C@H](F)C5)nc4c(F)c(-c5cccc6cccc(Cl)c56)ncc34)C[C@@H]2CC#N)CC1 [Compound 280] = 10 to 100 nM

Please fill in: IC50 reported for Cc1ncc(F)c(/C=C/C(=O)N2CCN(c3nc(OC[C@@]45CCCN4C[C@H](F)C5)nc4c(F)c(-c5cccc6cccc(Cl)c56)ncc34)C[C@@H]2CC#N)n1 [Compound 157] = 10 to 100 nM

Please fill in: IC50 reported for N#CC[C@H]1CN(c2nc(OC[C@@]34CCCN3C[C@H](F)C4)nc3c(F)c(-c4cccc(Cl)c4C4CC4)ncc23)CCN1C(=O)/C=C/CN1CC[C@@H](F)C1 [Compound 284] = < 10 nM

Alright, here's another compound for you.
Please fill in: IC50 reported for CCc1c(F)ccc2cccc(-c3ncc4c(N5CCN(C(=O)/C=C/CN6CCOCC6)[C@@H](CC#N)C5)nc(OC[C@@]56CCCN5C[C@H](F)C6)nc4c3F)c12 [Compound 226] = 10 to 100 nM
